Numbers sourced from paper PMC8010095.

Known MetRS inhibition activity, % of a selection of compounds
biological target: M. tuberculosis methionyl-tRNA synthetase (MetRS) (Mycobacterium tuberculosis, UniProt P9WFU5); construct: made in house; host or cells: Escherichia coli; test: biochemical; type: biochemical; settings: recombinant enzyme; mean ± spread (n in brackets); negative = activation; further: test concentration or dose not given here
Sequence (P9WFU5 whole entry): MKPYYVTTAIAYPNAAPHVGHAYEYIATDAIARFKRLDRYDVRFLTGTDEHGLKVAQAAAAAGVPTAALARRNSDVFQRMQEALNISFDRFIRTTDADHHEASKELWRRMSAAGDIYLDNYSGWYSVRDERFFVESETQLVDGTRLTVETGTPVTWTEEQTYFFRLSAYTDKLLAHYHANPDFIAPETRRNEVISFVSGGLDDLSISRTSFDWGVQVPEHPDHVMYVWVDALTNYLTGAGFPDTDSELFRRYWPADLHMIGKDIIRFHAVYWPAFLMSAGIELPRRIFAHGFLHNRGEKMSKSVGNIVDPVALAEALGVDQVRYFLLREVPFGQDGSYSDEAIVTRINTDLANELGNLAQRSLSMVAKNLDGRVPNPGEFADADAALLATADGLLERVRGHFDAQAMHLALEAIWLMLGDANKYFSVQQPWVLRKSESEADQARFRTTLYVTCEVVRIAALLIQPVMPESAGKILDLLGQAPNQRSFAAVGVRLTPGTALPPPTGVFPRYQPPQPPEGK

Below: 10 compounds and their reported MetRS inhibition activity, %.
molecule | recorded endpoint | result
COc1ccc(-n2nnc(-c3nc(-c4ccc(F)cc4)no3)c2N)cc1Cl | MetRS inhibition activity, % | 77 ± 3 (2) %
Nc1c(-c2nc(-c3ccc(F)cc3)no2)nnn1-c1ccccc1 | MetRS inhibition activity, % | 30 ± 2 (2) %
Nc1c(-c2nc(-c3ccc(F)cc3)no2)nnn1-c1cccc(Cl)c1 | MetRS inhibition activity, % | 47 ± 19 (2) %
CCOc1ccccc1-n1nnc(-c2nc(-c3ccc(Br)cc3)no2)c1N | MetRS inhibition activity, % | 25 ± 5 (2) %
Nc1c(-c2nc(-c3ccc(F)cc3)no2)nnn1-c1ccc(Cl)cc1 | MetRS inhibition activity, % | 23 ± 25 (3) %
CCOc1ccc(-c2noc(-c3nnn(-c4ccccc4Cl)c3N)n2)cc1 | MetRS inhibition activity, % | 22 ± 14 (2) %
COc1cccc(-n2nnc(-c3nc(-c4ccc(F)cc4)no3)c2N)c1 | MetRS inhibition activity, % | 37 ± 17 (3) %
Nc1c(-c2nc(-c3ccc(F)cc3)no2)nnn1-c1ccc(F)cc1 | MetRS inhibition activity, % | 52 ± 6 (2) %
CCOc1ccccc1-n1nnc(-c2nc(-c3ccc(F)cc3)no2)c1N | MetRS inhibition activity, % | 19 ± 0.9 (2) %
CCOc1ccc(-c2noc(-c3nnn(-c4ccccc4F)c3N)n2)cc1 | MetRS inhibition activity, % | 35 ± 6 (2) %

Enquiry: Name the recorded MetRS inhibition activity, % of the compound listed here: COc1ccc(-c2noc(-c3nnn(-c4ccc(Cl)cc4)c3C)n2)cc1OC
Return: 25 ± 18 (2) %

Enquiry: Name the recorded MetRS inhibition activity, % of the compound listed here: COc1ccc(C)cc1-n1nnc(-c2nc(-c3ccc(F)cc3)no2)c1N
Return: 37 ± 3 (2) %

Enquiry: Name the recorded MetRS inhibition activity, % of the compound listed here: COc1ccc(OC)c(-n2nnc(-c3nc(-c4ccc(F)cc4)no3)c2N)c1
Return: 14 ± 14 (2) %
